Test system: PFTK1;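 note: KINOMEscan kinase panel screen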
Construct: gene CDK14
Settings: concentration: 1 μM, replicates: in singlicate; n = 1
So I've got a bunch of compounds here, and I need their %Inh values.
# number then unit; no other words

compound	tested target	%Inh
CCC(=O)c1c(-c2ccccc2)c2cc(Cl)ccc2c(=O)n1Cc1cc(S(C)(=O)=O)n(CC(F)F)n1	PFTK1	0%
COc1ccc(-c2cc3c(C)nc(N)nc3n([C@H]3CC[C@H](OCCO)CC3)c2=O)cn1	PFTK1	0%
O=C(Nc1ccc2c(c1)OCO2)NC1CCN(c2ccnc(NCc3ccc(F)cc3)n2)CC1 [GSK1379859]	PFTK1	14%
O=C(NCCNc1ccnc(Nc2ccc(F)cc2)n1)Nc1ccc2c(c1)OCO2 [GSK1379882]	PFTK1	0%
CCS(=O)(=O)c1ccc(OC)c(Nc2ncc(-c3ccc(F)cc3)o2)c1.Cl [GW591947]	PFTK1	1%

Could you tell me %Inh for each of these compounds? They are listed below.
1. COc1cc(Nc2ccnc3ccc(C(F)(F)F)cc23)cc(OC)c1OC [GW577382]
2. Nc1nc(N)c2nc(-c3ccccc3)[nH]c2n1 [SKF-12778]
3. O=c1cc(N2CCOCC2)nc2n(Cc3ccc(F)c(Cl)c3)ccn12 [GSK2297099]
4. Nc1n[nH]c2ncc(-c3ccccc3)cc12 [SB-517081]

1. 0%
2. 9%
3. 14%
4. 10%
